Please go through the items and note down their IC50.
Target: 5-lipoxygenase (Rattus norvegicus)
Construct: The supernatant is employed as an enzyme solution of a 5-lipoxygenase; endogenous in cells; host or cells: RBL-1 rat basophilic leukemia cells, sonicated, 15,000 rpm supernatant (crude, not purified)
Sequence (P12527 1-673): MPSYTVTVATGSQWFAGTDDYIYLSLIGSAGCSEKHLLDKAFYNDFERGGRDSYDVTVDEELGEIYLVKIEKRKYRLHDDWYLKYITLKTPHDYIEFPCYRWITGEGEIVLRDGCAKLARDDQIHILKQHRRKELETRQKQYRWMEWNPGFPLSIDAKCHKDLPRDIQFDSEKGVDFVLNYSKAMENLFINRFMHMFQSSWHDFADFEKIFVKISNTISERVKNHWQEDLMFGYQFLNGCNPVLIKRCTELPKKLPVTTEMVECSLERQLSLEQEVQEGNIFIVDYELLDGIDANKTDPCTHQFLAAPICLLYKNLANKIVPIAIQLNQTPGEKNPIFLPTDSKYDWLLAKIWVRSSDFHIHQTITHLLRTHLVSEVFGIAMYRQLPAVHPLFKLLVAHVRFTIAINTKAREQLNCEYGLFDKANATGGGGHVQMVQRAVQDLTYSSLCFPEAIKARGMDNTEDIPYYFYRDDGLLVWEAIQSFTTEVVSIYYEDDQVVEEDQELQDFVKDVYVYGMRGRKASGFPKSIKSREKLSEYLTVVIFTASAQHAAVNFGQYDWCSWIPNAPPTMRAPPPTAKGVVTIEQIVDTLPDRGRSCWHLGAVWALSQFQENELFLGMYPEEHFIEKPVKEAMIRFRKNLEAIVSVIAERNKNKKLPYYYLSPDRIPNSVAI
Assay: 5-Lipoxygenase-inhibiting activity (Test Example 2, radiolabeled arachidonic acid, TLC of 5-HETE)
Assay type: biochemical
Settings: RBL-1 cell supernatant, pH 7.4, 37° C., 15 min, radio-TLC of 5-HETE, read-out: 50% Inhibitory concentration
Give bare numbers, in nM.

CC(C)=CCC/C(C)=C/COC(=O)/C=C/C=C/c1ccc(O)c(O)c1
260

Hi, could you look up IC50 for each item in my list?
1. COc1cc(/C=C/C=C/C(=O)OCC=C(C)C)ccc1O
2. CC(C)=CCOC(=O)/C=C/C=C/c1ccc(O)c(O)c1
3. COc1cc(/C=C/C=C/C(=O)NC/C=C(\C)CC/C=C(\C)CCC=C(C)C)ccc1O
4. COc1cc(/C=C/C=C/C(=O)NC/C=C(\C)CCC=C(C)C)ccc1O
5. COc1cc(/C=C/C=C/C(=O)OC/C=C(\C)CCC=C(C)C)ccc1O

1: 400; 2: 26; 3: 310; 4: 83; 5: 1200

Hi, could you look up IC50 for each item in my list?
1. COc1cc(/C=C/C(=O)OCC=C(C)C)ccc1O [Example 5, prenyl 4-hydroxy-3-methoxycinnamate]
2. CC(C)=CCC/C(C)=C/CNC(=O)/C=C/C=C/c1ccc(O)c(O)c1
3. COc1cc(/C=C/C(=O)NC/C=C(\C)CCC=C(C)C)ccc1O
4. COc1cc(/C=C/C=C/C(=O)NCC=C(C)C)ccc1O

[3000, 11, 920, 650]

* * *

biological target: 5-lipoxygenase (Rattus norvegicus); construct: The supernatant is employed as an enzyme solution of a 5-lipoxygenase; endogenous in cells; host or cells: RBL-1 rat basophilic leukemia cells, sonicated, 15,000 rpm supernatant (crude, not purified); test: 5-Lipoxygenase-inhibiting activity (Test Example 1, HPLC of 5-HETE); assay type: biochemical; settings: RBL-1 cell supernatant; 50 μg arachidonic acid; pH 7.4; 37° C., 15 min; HPLC peak of 5-HETE; read-out: 50% Inhibitory concentration
Please go through the items and note down their pIC50.
Answers are plain numbers, as −log10 of the molar value.

// solved cases for pIC50 follow
COc1cc(/C=C/C=C/C(=O)CCC=C(C)C)ccc1O
6.30
COc1cc(/C=C/C=C/C(=O)CC/C=C(\C)CC/C=C(\C)CCC=C(C)C)ccc1O
6.10
COc1cc(/C=C/C=C/C(=O)CC/C=C(\C)CCC=C(C)C)ccc1O
6.42

Shift focus to the following entry.
Data request, read-out pIC50, for CC(C)=CCCC(=O)/C=C/c1ccc(O)c(O)c1
7.10
